- subject_of_test: Tag-xPSM (Homo sapiens)
- Construct: made in house; host or cells: Sf-9 insect cells infected with recombinant baculovirus; protein harvested from the media
- assay_procedure: Tag-xPSM phage display selection (agarose/cellulose), sequencing of selected phage
- Type: binding
- conditions_used: Cellulose
- Description: […] Individual phage plaques were amplified for 5 hours in ER2738 cells at 37° C. […] Products were sequenced and analyzed on the MegaBACE capillary sequencer. […]
readout: Number of times sequence was found, Round 4

Give Number of times sequence was found, Round 4 for each of the items listed below.
1. CKPSMMSYC [SEQ ID NO:8]
2. CHKFQSKMC [SEQ ID NO:17]
3. CLSSNSSLC [SEQ ID NO:28]
4. CSSHSTVHC [SEQ ID NO:7]
5. CTNSNMHHC [SEQ ID NO:22]

Output:
1. 0/0
2. 1
3. 0/0
4. 0/0
5. 0/0

Below is a list of sequences. For each, state its recorded Number of times sequence was found, Round 4.
1. CQKHHNYLC [SEQ ID NO:1]
2. CPSVNTKQC [SEQ ID NO:9]
3. CQFRHSAQC [SEQ ID NO:23]
4. CAPNKYKHC [SEQ ID NO:11]

Output:
0/0
0/0
0/0
0

Required: Number of times sequence was found, Round 4, one value per sequence below.
1. CTPLSPRYC [SEQ ID NO:12]
2. CGLPTRTAC [SEQ ID NO:16]
3. CTITSKRTC [SEQ ID NO:2]
4. CKPTNQHKC [SEQ ID NO:19]

Output:
1
1
3/3
1

* * *

- subject_of_test: Tag-xPSM (Homo sapiens)
- Construct: made in house; host or cells: Sf-9 insect cells infected with recombinant baculovirus; protein harvested from the media
- assay_procedure: Tag-xPSM phage display selection (agarose/cellulose), sequencing of selected phage
- Format: binding
- conditions_used: Agarose
readout: Number of times sequence was found, Round 3

Study these solved cases before continuing.
1. CSTRAPHLC [SEQ ID NO:5]    0/0
2. CKPTNQHKC [SEQ ID NO:19]    0/0
3. CKHSVSPSC [SEQ ID NO:18]    0/0
4. CLSSNSSLC [SEQ ID NO:28]    0

Consider the following items and state reported Number of times sequence was found, Round 3 for each.
1. CQKHHNYLC [SEQ ID NO:1]
2. CLSTTISYC [SEQ ID NO:21]

Output:
0/0
0/0

Could I get Number of times sequence was found, Round 3 for every one of these entries?
1. CPSVNTKQC [SEQ ID NO:9]
2. CFPQSSDRC [SEQ ID NO:24]
3. CDAVRYPVC [SEQ ID NO:20]
4. CSHNDTRHC [SEQ ID NO:4]
5. CQFRHSAQC [SEQ ID NO:23]
6. CHTSLKTHC [SEQ ID NO:14]
7. CTPLSPRYC [SEQ ID NO:12]
8. CLKSHSHQC [SEQ ID NO:15]

Output:
0/0
1
0/0
0/0
1
0/0
0/0
0/0

Look up Number of times sequence was found, Round 3 for the entries below, preserving their order.
1. CNKSSLGTC [SEQ ID NO:13]
2. CHTTTDVYC [SEQ ID NO:25]
3. CAPNKYKHC [SEQ ID NO:11]

Output:
0/0
1
0/0

* * *

- subject_of_test: xPSM (Homo sapiens)
- Construct: Purified human xPSM (the extracellular portion of human PSMA); S-tag (cleaved yes); made in house; host or cells: Sf-9 insect cells infected with recombinant baculovirus; released from S-protein agarose by enterokinase
- Sequence (Q04609 44-750 limits assumed): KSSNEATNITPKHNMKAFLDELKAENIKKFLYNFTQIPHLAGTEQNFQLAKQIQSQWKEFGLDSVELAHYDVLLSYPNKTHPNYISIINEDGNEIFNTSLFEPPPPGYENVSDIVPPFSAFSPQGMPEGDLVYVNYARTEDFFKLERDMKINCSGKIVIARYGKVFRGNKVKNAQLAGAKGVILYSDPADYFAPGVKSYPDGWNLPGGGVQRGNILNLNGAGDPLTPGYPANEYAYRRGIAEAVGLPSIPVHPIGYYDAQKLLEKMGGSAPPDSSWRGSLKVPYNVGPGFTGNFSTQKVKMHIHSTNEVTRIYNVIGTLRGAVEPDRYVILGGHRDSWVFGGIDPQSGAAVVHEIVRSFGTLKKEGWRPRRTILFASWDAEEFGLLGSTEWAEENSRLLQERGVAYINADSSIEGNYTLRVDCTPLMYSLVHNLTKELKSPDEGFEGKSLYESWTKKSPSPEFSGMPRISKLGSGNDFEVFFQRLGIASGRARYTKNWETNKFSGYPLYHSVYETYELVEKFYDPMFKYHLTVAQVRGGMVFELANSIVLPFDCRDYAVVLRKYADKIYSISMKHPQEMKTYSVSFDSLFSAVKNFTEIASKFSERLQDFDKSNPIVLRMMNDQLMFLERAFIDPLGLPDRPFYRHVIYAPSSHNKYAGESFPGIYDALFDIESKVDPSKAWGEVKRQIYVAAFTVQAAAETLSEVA
- assay_procedure: Final phage display round on xPSM bound to microtiter plates
- Type: binding
Assignment: determine reported Number of times sequence was found, Round 1 xPSM for the given sequences.

The following sequences have reported results that may help.
1) CTYNPSRWC [SEQ ID NO:29]    7
2) CTNPNMHHC [SEQ ID NO:35]    0

# batch size: 2; output Number of times sequence was found, Round 1 xPSM per entry
1. CGSAARNWC [SEQ ID NO:32]
2. CNKAALGTC [SEQ ID NO:31]

Output:
0
1

Please state Number of times sequence was found, Round 1 xPSM for every sequence in the list that follows.
1. CPQPASRQC [SEQ ID NO:36]
2. CKSGEVNYC [SEQ ID NO:34]
3. CERNTYRFC [SEQ ID NO:33]
4. CLAAPTGKC [SEQ ID NO:30]

Output:
1. 1
2. 0
3. 0
4. 12

* * *

Would you mind telling me the reported Number of times sequence was found, Round 5 of each entry?
- subject_of_test: Tag-xPSM (Homo sapiens)
- Construct: made in house; host or cells: Sf-9 insect cells infected with recombinant baculovirus; protein harvested from the media
- assay_procedure: Tag-xPSM phage display selection (agarose/cellulose), sequencing of selected phage
- Type: binding
- conditions_used: Cellulose

1. CLSTTISYC [SEQ ID NO:21]    0/0
2. CKPSMMSYC [SEQ ID NO:8]    1
3. CHTKHASHC [SEQ ID NO:6]    1

Could you tell me Number of times sequence was found, Round 5 for each of these sequences? They are listed below.
1. CGLPTRTAC [SEQ ID NO:16]
2. CDAVRYPVC [SEQ ID NO:20]
3. CFPQSSDRC [SEQ ID NO:24]
4. CHTSLKTHC [SEQ ID NO:14]
5. CTSNNSAIC [SEQ ID NO:27]
6. CTITSKRTC [SEQ ID NO:2]
7. CSTRAPHLC [SEQ ID NO:5]

Output:
0/0
0/0
0/0
0/0
0/0
3
1

I would be grateful if you could provide Number of times sequence was found, Round 5 for each of the following entries.
1. CQTPYDLRC [SEQ ID NO:10]
2. CHTTTDVYC [SEQ ID NO:25]

Output:
1: 1; 2: 0/0

Here are 3 sequences. What values of Number of times sequence was found, Round 5 were reported for them?
1. CHKFQSKMC [SEQ ID NO:17]
2. CNKSSLGTC [SEQ ID NO:13]
3. CKPTNQHKC [SEQ ID NO:19]

Output:
1: 0/0; 2: 0/0; 3: 0/0

Could I get Number of times sequence was found, Round 5 for every one of these entries?
1. CLSSNSSLC [SEQ ID NO:28]
2. CKHSVSPSC [SEQ ID NO:18]
3. CSHNDTRHC [SEQ ID NO:4]
4. CAPNKYKHC [SEQ ID NO:11]

Output:
1. 0/0
2. 0/0
3. 1
4. 0/0

* * *

I'd be grateful if you could share measured Number of times sequence was found, Round 5 for these entries.
- subject_of_test: Tag-xPSM (Homo sapiens, UniProt Q04609)
- Construct: made in house; host or cells: Sf-9 insect cells infected with recombinant baculovirus; protein harvested from the media
- Sequence (Q04609 44-750 limits assumed): as above
- assay_procedure: Tag-xPSM phage display selection (agarose/cellulose), sequencing of selected phage
- Format: binding
- conditions_used: Agarose

Sample answers from the record:
1) CTITSKRTC [SEQ ID NO:2]    0
2) CHKFQSKMC [SEQ ID NO:17]    0/0
3) CSSHSTVHC [SEQ ID NO:7]    0

Please go through the list and note Number of times sequence was found, Round 5 for each sequence.
1. CTPLSPRYC [SEQ ID NO:12]
2. CDAVRYPVC [SEQ ID NO:20]
3. CKHSVSPSC [SEQ ID NO:18]

Output:
1: 0/0; 2: 0/0; 3: 0/0

I have 6 sequences here; please give me Number of times sequence was found, Round 5 for each one.
1. CGLPTRTAC [SEQ ID NO:16]
2. CTLVPHTRC [SEQ ID NO:3]
3. CHTTTDVYC [SEQ ID NO:25]
4. CLSSNSSLC [SEQ ID NO:28]
5. CKPTNQHKC [SEQ ID NO:19]
6. CKPSMMSYC [SEQ ID NO:8]

Output:
1. 0/0
2. 0
3. 0/0
4. 0/0
5. 0/0
6. 0

Batch request: Number of times sequence was found, Round 5 for each of the following sequences.
1. CSTRAPHLC [SEQ ID NO:5]
2. CLKSHSHQC [SEQ ID NO:15]
3. CNKSSLGTC [SEQ ID NO:13]
4. CPSVNTKQC [SEQ ID NO:9]
5. CFPQSSDRC [SEQ ID NO:24]

Output:
0
0/0
0/0
0
0/0

Kindly give each listed record's Number of times sequence was found, Round 5.
1. CQKHHNYLC [SEQ ID NO:1]
2. CPIMLSEPC [SEQ ID NO:26]
3. CQTPYDLRC [SEQ ID NO:10]
4. CTNSNMHHC [SEQ ID NO:22]
5. CHTKHASHC [SEQ ID NO:6]

Output:
1. 0
2. 0/0
3. 0
4. 0/0
5. 0
